# Test system: PC-3 prostate
# method notes: NCI-60 one-dose screen, 48 h
# run conditions: 10 µM unless noted
Compounds without any hit were thinned out: in the full panel of roughly 83,000, 20% have a hit. The source made the active and inactive calls. How the source made its calls: active means growth percent below 10; inactive means the rest.
A correct response names exactly one class from TRUE for active, FALSE for inactive

Req: Each compound tested received a call. Report the one for CCCCCCCCCc1ccc(C(=O)Nc2cc(C)ccc2C(=O)OC)cc1 .
Resp: FALSE

Req: Could you check what this test reported for O=C(c1ccc(Cl)cc1)C1[C@H](c2ccccc2Cl)[C@@H](c2ccccc2)NC12C(=O)Nc1ccccc12 (stereo not given in full) ?
Resp: TRUE

Req: Record lookup: outcome of this test for N#Cc1cc(-c2ccnc(Nc3ccc(N4CCN(C5COC5)CC4)cc3)n2)ccc1N1CCCC1 ?
Resp: FALSE

Req: Dear colleague, could you share the recorded outcome for Nc1nnc(CS(=O)(=O)c2ccccc2)s1 when you have a moment?
Resp: FALSE

Req: Lab log entry: O=C(NNC(=S)NCCc1ccccc1)c1ccc(OCc2nc3ccc(Cl)cc3[nH]2)cc1 — outcome as called in the assay?
Resp: FALSE

Req: So what was the verdict on Cn1cc(-c2cc3nc(-c4cn(C)c5ncc(Br)cc45)cc(N)n3n2)c2cc(F)ccc21 in this test?
Resp: FALSE

Req: Assay outcome for O=C(N/N=C/c1occc1Br)c1[nH]c2ccc(Br)cc2c1-c1ccccc1 : what was it?
Resp: TRUE

Req: Check the results log: what was the call for O=C(NN1C(=O)/C(=C/C=C/c2ccc([N+](=O)[O-])o2)SC1=S)c1ccncc1 ?
Resp: TRUE

Req: Check the results log: what was the call for COc1ccc(NC2=C(I)C(=O)C(C)=C(C)C2=O)cc1 ?
Resp: FALSE

Req: Called result for c1n[nH]cc1-c1nc2ccc3cn[nH]c3c2c2c1CCCC2
Resp: FALSE

Req: What outcome does the record of this test show for O=CNc1cccc(-n2cnc3cc(-c4ccc(O)cc4)ccc32)c1 ?
Resp: FALSE

Req: Field: outcome | Entry: O=C(Cn1c(-c2ccccc2)nc2ccccc21)N=Nc1c(O)[nH]c2ccc(Cl)cc12
Resp: FALSE

Req: Status in this test for O=C(c1ccc(O)cc1)C1[C@H](c2ccc(Cl)cc2)[C@@H](c2ccccc2)NC12C(=O)Nc1ccc(Br)cc12 (stereo not given in full) ?
Resp: TRUE

Req: Which result was noted for this compound in the test: CCC(=O)c1c2c(c3ccc4c5ccccc5ccc4n13)C(=O)c1ccccc1C2=O
Resp: FALSE

Req: Which outcome did this test record for the compound Nc1nn2c(-c3cc4cc(Br)ccc4oc3=O)ccnc2c1N=Nc1ccc(Br)cc1 ?
Resp: FALSE

Req: Could you check what this test reported for O=C1Nc2cc(-c3ccc(NS(=O)(=O)c4ccc(-c5ccccc5)cc4)cc3)ccc2/C1=C/c1ccc[nH]1 ?
Resp: FALSE

Req: Give the logged outcome of this assay for the following compound: FC(F)(F)c1cc2c(Cl)ncnc2n1CCC1CCOCC1
Resp: TRUE

Req: Outcome logged for Cn1cc(-c2cc3nc(-c4cn(C)c5ncccc45)cc(N)n3n2)c2cc(F)ccc21 in this assay:
Resp: FALSE

Req: Just curious, what result did COc1ccc2c(c1)C(Sc1ccc(F)cc1)c1c(nc(N)c(C#N)c1N)O2 (stereo not given) get here?
Resp: FALSE

Req: Give the logged outcome of this assay for the following compound: Clc1ccc(Nc2nnc(-c3c[nH]c4ccccc34)o2)cc1
Resp: FALSE
